Recorded values, source the RNAGym collection of RNA variant scans (doi:10.7554/elife.80360).

B1: CPEB3 Ribozyme (parent)
chain: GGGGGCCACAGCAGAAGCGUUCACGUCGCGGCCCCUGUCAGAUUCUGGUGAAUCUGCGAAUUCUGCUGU

- Variants of: B1
- TEST SUMMARY: self-cleavage, relative activity (ratio to wild type); higher = more cleavage; co-transcriptional
Class membership depends on self-cleavage alone; the intervals are group 1 (below 0.2), group 2 (0.2 to below 0.5), group 3 (0.5 or more)

Worked set:
Incoming: Hi there! Could you help me figure out the category for C22U C63A please?
Outgoing: group 1

Incoming: Lab note: which band did C57G U67C land in?
Outgoing: group 2

Incoming: Just checking, what class would you give G3C G17U here?
Outgoing: group 1

Incoming: GET /class?item= U36C A52U
Outgoing: group 3

New cases:
Incoming: Bin? C6A C12G
Outgoing: group 2

Incoming: Kindly identify the class of C7U G58A .
Outgoing: group 3

Incoming: Determine which band this variant sits in: C29G U69C
Outgoing: group 3

Incoming: Would you mind sorting G37A G50C into the appropriate category?
Outgoing: group 2

Incoming: # bin label for G19A G48A
Outgoing: group 1

Incoming: Class label required: A23G G25A
Outgoing: group 1

Incoming: The entry to classify is C24U U44A ; which class holds it?
Outgoing: group 3

Incoming: Place this variant in its band: G3A A23C
Outgoing: group 3

Incoming: For C7G G11A , which self-cleavage bin applies?
Outgoing: group 2

Incoming: Just checking, what class would you give C29U C34G here?
Outgoing: group 2

Incoming: Returns: class label. Input: G1C G25A
Outgoing: group 1
